Ref: patent US20240239772A1

Target: SARS-CoV-2 3CLpro (Severe acute respiratory syndrome coronavirus 2 (2019-nCoV) (SARS-CoV-2))
Assay: biochemical
Type: biochemical
Conditions: read-out: SARS-CoV-2 IC50
measured_attribute: pIC50
The quantity pIC50 is defined as the negative base-10 logarithm of the molar concentration.

// solved cases for pIC50 follow
O=C(Cn1nnc2ccccc21)N(Cc1cc(Cl)cc(Cl)c1)c1ccc(-c2cccnc2)cc1 | 6.75
COc1ccc(F)cc1CN(C(=O)Cn1nnc2ccccc21)c1ccc(-c2c[nH]cn2)cc1 | 6.70
Cc1nc(-c2ccc(N(Cc3cc(F)cc(F)c3)C(=O)Cn3nnc4ccccc43)cc2)c[nH]1 | 6.77

So, "O=C(Cn1nnc2ccccc21)N(Cc1cc(F)cc(F)c1)c1ccc(-c2c[nH]cn2)cc1" ? Its pIC50 was 7.02

Sample "O=C(Cn1nnc2ccccc21)N(Cc1ccc(F)c(Cl)c1)c1ccc(-c2cccnc2)cc1" ; pIC50 observed: 5.07

# molecule "COc1ccc(CN(C(=O)Cn2nnc3ccccc32)c2ccc(-c3c[nH]cn3)cc2)cc1F" ; its pIC50 = 6.01

Recorded result, "O=C(Cn1nnc2ccccc21)N(CC1CCC1)c1ccc(-c2cccnc2)cc1" , pIC50: 6.08

Record "NCCc1ccc(N(Cc2cc(F)cc(F)c2)C(=O)Cn2nnc3ccccc32)cc1" . Reported pIC50: 6.37

For reference, reported pIC50 for "O=C(Cn1nnc2ccccc21)N(Cc1cc(F)cc(Cl)c1)c1ccc(C2CNC2)cc1" stands at 7.00

###

Target: SARS-CoV-2 3CLpro (Severe acute respiratory syndrome coronavirus 2 (2019-nCoV) (SARS-CoV-2), UniProt P0DTD1)
Test: biochemical
Format: biochemical
Details: read-out: SARS-CoV-2 IC50
measured_attribute: pIC50
Bear in mind: pIC50 is minus log10 of a mol/L concentration; give just that figure.

Recorded results for 4 compounds are shown here.
O=C(Cn1nnc2ccccc21)N(Cc1c(F)cccc1F)c1ccc(-c2c[nH]cn2)cc1 | 6.01
NCc1ccc(N(Cc2cc(F)cc(F)c2)C(=O)Cn2nnc3ccccc32)cc1 | 7.23
O=C(Cn1nnc2ccccc21)N(Cc1cc(F)cc(F)c1)c1ccc(-c2c[nH]nn2)cc1 | 6.74
O=C(Cn1nnc2ccccc21)N(Cc1cc(F)cc(OC(F)(F)F)c1)c1ccc(-c2c[nH]cn2)cc1 | 6.92

Okay, now this compound:
Just so you know, measured pIC50 for "O=C(Cn1nnc2ccccc21)N(Cc1cncc(Cl)c1)c1ccc(-c2c[nH]cn2)cc1" came out at 7.05

###

A short record of pIC50 observed with SARS-CoV-1 3CLpro (Severe acute respiratory syndrome coronavirus (SARS-CoV)) follows.
When answering, recall that pIC50 equals minus log10 of the concentration in mol/L, and write that number alone.

// recorded pIC50 for "O=C(Cn1nnc2ccccc21)N(Cc1cccc(Cl)c1)c1ccc(-c2cn[nH]c2)nc1" : 6.47

###

Test system: SARS-CoV-2
Test: microbe, parasite or virus in culture
Type: cell-based
Conditions: Severe acute respiratory syndrome coronavirus 2, Vero C1008; Vero E6 ACE2 cells, approximately 50 PFUs SARS-CoV-2; read-out: Plaque Reduction Assay EC50
measured_attribute: EC50 (µM)
Give your result in µM as a bare value.

Entry O=C(Cn1nnc2ccccc21)N(Cc1cccc(Cl)c1)c1ccc(-c2ccc[nH]c2=O)cc1 [Compound 35] — recorded EC50 = 16.7

###

Target: SARS-CoV-2 3CLpro (Severe acute respiratory syndrome coronavirus 2 (2019-nCoV) (SARS-CoV-2), UniProt P0DTD1)
Assay: biochemical
Assay type: biochemical
Conditions: read-out: SARS-CoV-2 IC50
measured_attribute: pIC50
Keep it numeric: pIC50 is minus log10 of the concentration in mol/L.

COc1cc(F)cc(CN(C(=O)Cn2nnc3ccccc32)c2ccc(-c3c[nH]cn3)cc2)c1 | 7.16
O=C(Cn1nnc2ccccc21)N(Cc1cscn1)c1ccc(-c2cccnc2)cc1 | 5.80
O=C(Cn1nnc2ccccc21)N(Cc1ccnc(C(F)(F)F)c1)c1ccc(-c2c[nH]cn2)cc1 | 5.54

"O=C(Cn1nnc2ccccc21)N(Cc1cccc(F)c1)c1ccc(-c2c[nH]cn2)cc1" yielded pIC50 of 6.44

###

Test system: SARS-CoV-2
Assay: microbe, parasite or virus in culture
Format: cell-based
Settings: Severe acute respiratory syndrome coronavirus 2, Vero C1008, 68 h, read-out: CPE Inhibition Assay EC50
measured_attribute: EC50 (µM)
Dear colleague, please return just the value in µM, with no unit written.

// below: answered compounds
O=C(Cn1nnc2ccccc21)N(Cc1cccc(Cl)c1)c1ccc(-c2cn[nH]c2)cn1 | 1.91
COc1cc(N(Cc2cccc(Cl)c2)C(=O)Cn2nnc3ccccc32)ccc1-c1cn[nH]c1 | 2.93
O=C(Cn1nnc2ccccc21)N(Cc1cccc(Cl)c1)c1ccc(-c2ccc[nH]c2=O)cc1 | 8.77
O=C(Cn1nnc2ccccc21)N(Cc1cccc(Cl)c1)c1ccc(-c2cn[nH]c2)nc1 | 3.81
CCC(CC)COC(=O)[C@H](C)N[P@](=O)(OC[C@H]1O[C@@](C#N)(c2ccc3c(N)ncnn23)[C@H](O)[C@@H]1O)Oc1ccccc1 [Remdesivir, reference compound] | 0.34

Continue with the next compound.
Lab book: EC50 of O=C(Nc1ccc(N(Cc2ccsc2)C(=O)Cn2nnc3ccccc32)cc1)C1CC1 [ML300, reference compound] noted as 19.9

###

Molecular target: SARS-CoV-2 3CLpro (Severe acute respiratory syndrome coronavirus 2 (2019-nCoV) (SARS-CoV-2), UniProt P0DTD1)
Test: biochemical
Format: biochemical
Conditions: read-out: SARS-CoV-2 IC50
# key: entry, value: pIC50
Notebook: values listed as pIC50 are -log10 of the concentration (mol/L).

COc1cc(-c2cn[nH]c2)ccc1N(Cc1cccc(Cl)c1)C(=O)Cn1nnc2ccccc21 [Compound 38] | 6.71
O=C(Cn1nnc2ccccc21)N(Cc1cc(F)cc(F)c1)c1ccc(C2=CCNC2)cc1 [Compound 91] | 6.89
O=C(Cn1nnc2ccccc21)N(Cc1cc(F)cc(F)c1)c1ccc(C2CNC2)cc1 [Compound 118] | 7.11
Cc1[nH]cnc1-c1ccc(N(Cc2cc(F)cc(Cl)c2)C(=O)Cn2nnc3ccccc32)cc1 [Compound 74] | 6.46
O=C(Cn1nnc2ccccc21)N(Cc1cncc(F)c1)c1ccc(-c2c[nH]cn2)cc1 [Compound 97] | 6.89

Please fill in: pIC50 reported for CC(C)CCN(C(=O)Cn1nnc2ccccc21)c1ccc(-c2cccnc2)cc1 [Compound 22] = 5.34

Form field pIC50, entry Cn1cc(-c2ccc(N(Cc3ccsc3)C(=O)Cn3nnc4ccccc43)cc2)cn1 [Compound 18] : 4.69

###

Target: SARS-CoV-2 3CLpro (Severe acute respiratory syndrome coronavirus 2 (2019-nCoV) (SARS-CoV-2), UniProt P0DTD1)
Assay: biochemical
Format: biochemical
Details: read-out: SARS-CoV-2 IC50
measured_attribute: pIC50
Please keep in mind that pIC50 is minus log10 of the molar concentration; only the number is needed.

Would you please look over these solved cases?
O=C(Cn1nnc2ccccc21)N(Cc1cccc(F)c1F)c1ccc(-c2c[nH]cn2)cc1 | 6.40
O=C(Cn1nnc2ccccc21)N(Cc1ccc(Cl)c(F)c1)c1ccc(-c2c[nH]cn2)cc1 | 5.60
CC(C)CN(C(=O)Cn1nnc2ccccc21)c1ccc(-c2c[nH]cn2)cc1 | 6.17

Value of pIC50 reported for the compound "O=C(Cn1nnc2ccccc21)N(CC1CCC1)c1ccc(-c2c[nH]cn2)cc1" is 5.96

Entry under test: "O=C(Cn1nnc2ccccc21)N(Cc1cccc(C(F)(F)F)c1)c1ccc(-c2c[nH]cn2)cc1" . Its pIC50 was 6.57

Lab book: pIC50 of "Cc1cc(Cl)cc(CN(C(=O)Cn2nnc3ccccc32)c2ccc(-c3cccnc3)cc2)c1" noted as 6.51

What the record says about O=C(Cn1nnc2ccccc21)N(Cc1cc(F)cc(F)c1)c1ccc(C2CCNC2)cc1 (centres unmarked) : pIC50 is 6.68

Entry under test: "O=C(Cn1nnc2ccccc21)N(CC1COC1)c1ccc(-c2cccnc2)cc1" . Its pIC50 was 4.49

###

Biological target: SARS-CoV-2 3CLpro (Severe acute respiratory syndrome coronavirus 2 (2019-nCoV) (SARS-CoV-2), UniProt P0DTD1)
Experiment: biochemical
Type: biochemical
Settings: read-out: SARS-CoV-2 IC50
measured_attribute: pIC50
API: returns pIC50 as number; meaning -log10 of concentration in mol/L.

Study these solved cases before continuing.
O=C(Nc1ccc(N(Cc2ccsc2)C(=O)Cn2nnc3ccccc32)cc1)C1CC1 [ML300, reference compound] | 5.30
O=C(Cn1nnc2ccccc21)N(Cc1cc(F)cc(F)c1)c1ccc(C2CCNCC2)cc1 | 5.77
O=C(Cn1nnc2ccccc21)N(Cc1cc(F)cc(Cl)c1)c1ccc(-c2c[nH]cn2)cc1 | 7.28
Cn1cnc(-c2ccc(N(Cc3ccsc3)C(=O)Cn3nnc4ccccc43)cc2)c1 | 5.02
O=C1C=C(c2ccc(N(Cc3cc(F)cc(F)c3)C(=O)Cn3nnc4ccccc43)cc2)CN1 | 6.47

Lab note: measured pIC50 of "O=C(O)Cc1ccc(N(Cc2cc(F)cc(F)c2)C(=O)Cn2nnc3ccccc32)cc1" was 4.64
